method_description: Pharmacokinetics and tissue distribution in CD-1 mice
Format: in vivo
assay_setup: female, mouse, spleen, IP 10 mg/kg
endpoint_name: Cmax (ng/mL)
Give the value, in units of ng/mL, as a plain number.

Asked: Look up Cmax: O=C1C(NCc2ccccc2)=CC2=NCCc3c[nH]c1c32 [BA-TPQ]
Given back: 23000

###

method_description: Pharmacokinetics and tissue distribution in nude mice
Type: in vivo
assay_setup: female, nude (nu/nu), mouse, heart, IP 10 mg/kg
endpoint_name: Cmax (ng/mL)
Respond numerically; units are ng/mL and should not be typed.

Asked: I am curious: what Cmax value has been reported for `O=C1C(NCc2ccccc2)=CC2=NCCc3c[nH]c1c32` ?
Given back: 6380

###

method_description: Pharmacokinetics and tissue distribution in CD-1 mice
Assay type: in vivo
assay_setup: female, mouse, plasma, IP 10 mg/kg
endpoint_name: Tmax (min)
Just the number please, in min, no unit attached.

Asked: Can you look up the measured Tmax of O=C1C(NCc2ccccc2)=CC2=NCCc3c[nH]c1c32 [BA-TPQ] for me?
Given back: 4.8

###

method_description: Pharmacokinetics and tissue distribution in nude mice
Assay type: in vivo
assay_setup: female, nude (nu/nu), mouse, kidneys, IV 5 mg/kg
endpoint_name: AUC (ng·h/mL)
Return type: number; implicit unit ng·h/mL.

Asked: Consider the compound `O=C1C(NCc2ccccc2)=CC2=NCCc3c[nH]c1c32` and give its measured AUC.
Given back: 5480

###

method_description: Pharmacokinetics and tissue distribution in CD-1 mice
Assay type: in vivo
assay_setup: female, mouse, kidneys, IV 5 mg/kg
endpoint_name: AUC (ng·h/mL)
Write the number in ng·h/mL without appending the unit.

Asked: Reported AUC for `O=C1C(NCc2ccccc2)=CC2=NCCc3c[nH]c1c32` : what is it?
Given back: 2830

###

method_description: Binding to mouse plasma proteins (micro-ultrafiltration)
Assay type: in vitro ADME
assay_setup: non-Swiss albino, pooled mouse plasma; mouse plasma, 0.5 μM; read-out: Bound to plasma proteins (converted)
endpoint_name: fraction unbound at 1 h, 0.5 μM
Give your answer as a number; write no unit.

Asked: Returns the measured fraction unbound at 1 h, 0.5 μM for the input molecule. Input: `O=C1C(NCc2ccccc2)=CC2=NCCc3c[nH]c1c32`
Given back: 0.37

###

method_description: Pharmacokinetics and tissue distribution in nude mice
Format: in vivo
assay_setup: female, nude (nu/nu), mouse, plasma, IP 10 mg/kg
endpoint_name: Tmax (min)
Numbers only; they are read as min.

Asked: Can you share its Tmax? I mean this molecule: O=C1C(NCc2ccccc2)=CC2=NCCc3c[nH]c1c32 [BA-TPQ]
Given back: 15

###

method_description: Pharmacokinetics and tissue distribution in CD-1 mice
Assay type: in vivo
assay_setup: female, mouse, plasma, IP 10 mg/kg
endpoint_name: Cmax (ng/mL)
Note: unit ng/mL is implicit; provide only the numeric part.

Asked: Endpoint output: Cmax of `O=C1C(NCc2ccccc2)=CC2=NCCc3c[nH]c1c32` . Value?
Given back: 110

###

method_description: Pharmacokinetics and tissue distribution in nude mice
Assay type: in vivo
assay_setup: female, nude (nu/nu), mouse, plasma, IV 5 mg/kg
endpoint_name: Cmax (ng/mL)
Entry rule: numbers only, all in ng/mL.

Asked: Given `O=C1C(NCc2ccccc2)=CC2=NCCc3c[nH]c1c32` , state its recorded Cmax.
Given back: 150
